# TARGET OR SYSTEM: dopamine receptor (Bos taurus)
# Construct: from tissue
# TEST PROTOCOL: 3H-haloperidol receptor binding assay (HRBA)
# REPORTED CONDITIONS: 100 n moles concentration; read-out: inhibition of 3H-haloperidol binding
Structures can show the parent of a compound that is named as a salt.
// reported inhibition at 0.1 µM for each item listed
METRIC: inhibition at 0.1 µM

[[record]]
molecule = "c1ccc(N(CCCN2CCC3(CC2)OCCO3)c2ccccc2)cc1 [Example 45]"
observed = "~26%"

[[record]]
molecule = "Cc1cc2c(cc1C)n(C1CCN(CCCN(c3ccccc3)c3ccccc3)CC1)c(=O)n2C [Example 16]"
observed = "~60%"

[[record]]
molecule = "O=c1[nH]c2ccccc2n1C1CCN(CCCN(c2ccc(F)cc2)c2ccccc2F)CC1 [Example 14]"
observed = "~100%"

[[record]]
molecule = "FC(F)(F)c1cccc(OC2=CCN(CCCN(c3ccccc3)c3ccccc3)CC2)c1 [Example 23]"
observed = "~24%"

[[record]]
molecule = "Cc1cccc(C2CCN(CCCN(c3ccccc3)c3ccccc3)CC2)c1 [Example 41]"
observed = "~84%"

[[record]]
molecule = "Cc1cccc(N(CCCN2CCC(n3c(=O)[nH]c4ccccc43)CC2)c2ccccc2)c1 [Example 11, hydrochloride]"
observed = "~91%"

[[record]]
molecule = "c1ccc(N(CCCNC2=NC3CCC2CC3)c2ccccc2)cc1 [Example 46]"
observed = "~12%"

[[record]]
molecule = "Fc1ccc(N2CCN(CCCN(c3ccccc3)c3ccccc3)CC2)cc1 [Example 31]"
observed = "~12%"

[[record]]
molecule = "Cc1cc2[nH]c(=O)n(C3CCN(CCCN(c4ccc(F)cc4)c4ccc(F)cc4)CC3)c2cc1C [Example 17]"
observed = "~100%"

[[record]]
molecule = "OC(c1ccccc1)C1CCN(CCCN(c2ccccc2)c2ccccc2)CC1 (centres unmarked) [Example 43]"
observed = "~18%"

[[record]]
molecule = "Cc1cc2[nH]c(=O)n(C3CCN(CCCN(c4ccccc4)c4ccccc4)CC3)c2cc1C [Example 13]"
observed = "~93%"

[[record]]
molecule = "O=c1[nH]c2ccccc2n1C1CCN(CCCN(c2ccccc2)c2ccc(F)cc2)CC1 [Example 15]"
observed = "~100%"

[[record]]
molecule = "C1=C(Oc2ccccc2)CCN(CCCN(c2ccccc2)c2ccccc2)C1 [Example 21]"
observed = "~48%"

[[record]]
molecule = "Fc1ccc(N(CCCN2CCC(n3c(=S)[nH]c4ccccc43)CC2)c2ccc(F)cc2)cc1 [Example 8]"
observed = "~89%"


###

# TARGET OR SYSTEM: dopamine receptor (Bos taurus)
# Construct: from tissue
# TEST PROTOCOL: 3H-haloperidol receptor binding assay (HRBA)
# REPORTED CONDITIONS: read-out: inhibition of 3H-haloperidol binding
Structures can show the parent of a compound that is named as a salt.
METRIC: inhibition at 0.01 µM

[[record]]
compound = "O=C(c1ccc(Cl)cc1)C1CCN(CCCN(c2ccc(F)cc2)c2ccc(F)cc2)CC1"
observed = "~8%"

[[record]]
compound = "O=C1NCN(c2ccccc2)C12CCN(CCCN(c1ccc(F)cc1)c1ccc(F)cc1)CC2 [Example 1, hydrobromide]"
observed = "~73%"

[[record]]
compound = "Cc1ccc(N2CNC(=O)C23CCN(CCCN(c2ccccc2)c2ccccc2)CC3)cc1"
observed = "~71%"

[[record]]
compound = "COc1ccccc1N1CCN(CCCN(c2ccc(F)cc2)c2ccc(F)cc2)CC1 [Example 35, dihydrochloride]"
observed = "~28%"

[[record]]
compound = "COc1ccc(N2CNC(=O)C23CCN(CCCN(c2ccccc2)c2ccccc2)CC3)cc1"
observed = "~67%"

[[record]]
compound = "O=C1NCN(c2ccc(F)cc2)C12CCN(CCCN(c1ccccc1)c1ccccc1)CC2"
observed = "~76%"

[[record]]
compound = "CCCSc1ccccc1N1CCN(CCCN(c2ccccc2)c2ccccc2)CC1"
observed = "~6%"

[[record]]
compound = "OC1(c2cccc(F)c2)CCN(CCCN(c2ccccc2)c2ccccc2)CC1"
observed = "~23%"


###

Quick reference for inhibition at 0.01 µM among some molecules
# TARGET OR SYSTEM: dopamine receptor (Bos taurus, UniProt P20288)
# Construct: from tissue
# Sequence (P20288 whole entry): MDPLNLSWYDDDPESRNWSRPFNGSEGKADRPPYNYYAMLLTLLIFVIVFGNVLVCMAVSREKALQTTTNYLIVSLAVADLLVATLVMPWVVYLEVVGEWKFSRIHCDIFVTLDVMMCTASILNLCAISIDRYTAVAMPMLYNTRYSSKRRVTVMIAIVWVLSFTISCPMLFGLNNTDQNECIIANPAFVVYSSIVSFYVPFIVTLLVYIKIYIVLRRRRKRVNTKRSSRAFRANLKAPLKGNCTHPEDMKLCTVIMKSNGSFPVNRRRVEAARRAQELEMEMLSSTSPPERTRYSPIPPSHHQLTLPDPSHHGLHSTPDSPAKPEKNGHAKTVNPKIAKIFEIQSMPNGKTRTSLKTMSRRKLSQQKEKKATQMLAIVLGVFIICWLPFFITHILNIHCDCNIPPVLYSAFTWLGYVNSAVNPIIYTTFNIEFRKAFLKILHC
# TEST PROTOCOL: 3H-haloperidol receptor binding assay (HRBA)
# REPORTED CONDITIONS: read-out: inhibition of 3H-haloperidol binding
Structures can show the parent of a compound that is named as a salt.
METRIC: inhibition at 0.01 µM

[[record]]
molecule = "O=c1[nH]c2ccccc2n1C1CCN(CCCN(c2ccccc2)c2ccccc2)CC1 [Example 9, hydrochloride]"
target_or_system = "dopamine receptor (Bos taurus, UniProt P20288)"
observed = "~68%"

[[record]]
molecule = "O=C1NCN(c2ccc(F)cc2)C12CCN(CCCN(c1ccc(F)cc1)c1ccc(F)cc1)CC2"
target_or_system = "dopamine receptor (Bos taurus, UniProt P20288)"
observed = "~84%"

[[record]]
molecule = "c1ccc(CN2CCN(CCCN(c3ccccc3)c3ccccc3)CC2)cc1"
target_or_system = "dopamine receptor (Bos taurus, UniProt P20288)"
observed = "~16%"

[[record]]
molecule = "Fc1ccc(NC2CCN(CCCN(c3ccccc3)c3ccccc3)CC2)cc1"
target_or_system = "dopamine receptor (Bos taurus, UniProt P20288)"
observed = "~26%"

[[record]]
molecule = "OC1(c2ccc(Cl)cc2)CCN(CCCN(c2ccc(F)cc2)c2ccc(F)cc2)CC1"
target_or_system = "dopamine receptor (Bos taurus, UniProt P20288)"
observed = "~74%"

[[record]]
molecule = "O=c1[nH]c2ccccc2n1C1=CCN(CCCN(c2ccc(F)cc2)c2ccc(F)cc2)CC1 [Example 7, hydrochloride]"
target_or_system = "dopamine receptor (Bos taurus, UniProt P20288)"
observed = "~22%"

